measuredTarget: glucocorticoid receptor (Homo sapiens (Human), UniProt P04150)
Sequence (P04150 whole entry): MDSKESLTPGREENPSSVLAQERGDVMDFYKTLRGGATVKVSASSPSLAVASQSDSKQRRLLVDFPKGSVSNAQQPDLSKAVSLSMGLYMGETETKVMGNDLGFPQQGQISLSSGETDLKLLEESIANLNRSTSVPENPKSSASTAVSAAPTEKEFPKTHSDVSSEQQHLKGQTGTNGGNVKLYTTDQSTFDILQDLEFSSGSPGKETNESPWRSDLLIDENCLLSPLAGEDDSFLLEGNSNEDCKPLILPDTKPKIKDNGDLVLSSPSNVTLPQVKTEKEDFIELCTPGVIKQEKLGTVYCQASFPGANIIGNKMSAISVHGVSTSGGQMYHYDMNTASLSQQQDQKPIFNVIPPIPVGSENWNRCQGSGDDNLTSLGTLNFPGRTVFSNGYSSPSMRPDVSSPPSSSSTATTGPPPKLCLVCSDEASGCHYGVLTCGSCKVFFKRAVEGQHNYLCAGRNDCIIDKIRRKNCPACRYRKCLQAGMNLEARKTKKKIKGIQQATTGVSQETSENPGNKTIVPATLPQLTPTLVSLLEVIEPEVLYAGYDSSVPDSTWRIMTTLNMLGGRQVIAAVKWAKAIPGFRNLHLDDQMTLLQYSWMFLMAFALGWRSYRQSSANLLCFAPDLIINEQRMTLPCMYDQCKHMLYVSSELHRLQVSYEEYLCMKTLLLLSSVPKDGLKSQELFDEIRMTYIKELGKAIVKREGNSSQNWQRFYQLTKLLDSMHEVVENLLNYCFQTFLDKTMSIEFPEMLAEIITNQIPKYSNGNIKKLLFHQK
pIC50: −log10 of the molar value.
Answer Not fulfilled if pIC50 is under 9, and Fulfilled if it is 9 or more.

- molecule: "CCC(=O)O[C@]1(C(=O)SCCCP(=O)(O)O)[C@H](C)C[C@H]2[C@@H]3C[C@H](F)C4=CC(=O)C=C[C@]4(C)[C@@]3(F)[C@@H](O)C[C@@]21C"
  label: "Not fulfilled"
- molecule: "CCCC1O[C@@H]2C[C@H]3[C@@H]4CCC5=Cc6c(cnn6-c6cccc(OCCCCP(=O)(O)O)c6)C[C@]5(C)[C@H]4[C@@H](O)C[C@]3(C)[C@]2(C(=O)CO)O1 (stereo partly shown)"
  label: "Not fulfilled"
- molecule: "C[C@@H]1C[C@H]2[C@@H]3C[C@H](F)C4=CC(=O)C=C[C@]4(C)[C@@]3(F)[C@@H](O)C[C@]2(C)[C@@]1(O)C(=O)SCCCCCCCCCCP(=O)(O)O"
  label: "Fulfilled"
- molecule: "C[C@@H]1C[C@H]2[C@@H]3C[C@H](F)C4=CC(=O)C=C[C@]4(C)[C@@]3(F)[C@@H](O)C[C@]2(C)[C@@]1(OC(=O)CCCCCP(=O)(O)O)C(=O)SCF"
  label: "Fulfilled"
- molecule: "C[C@@H]1C[C@H]2[C@@H]3C[C@H](F)C4=CC(=O)C=C[C@]4(C)[C@@]3(F)[C@@H](O)C[C@]2(C)[C@@]1(O)C(=O)SCCCCCCP(=O)(O)O"
  label: "Not fulfilled"
- molecule: "C[C@@H]1C[C@H]2[C@@H]3C[C@H](F)C4=CC(=O)C=C[C@]4(C)[C@@]3(F)[C@@H](O)C[C@]2(C)[C@@]1(O)C(=O)SCCCCP(=O)(O)O"
  label: "Not fulfilled"
- molecule: "CCCC1O[C@@H]2C[C@H]3[C@@H]4CCC5=Cc6c(cnn6-c6ccc(OCCCCP(=O)(O)O)cc6)C[C@]5(C)[C@H]4[C@@H](O)C[C@]3(C)[C@]2(C(=O)CO)O1 (stereo partly shown)"
  label: "Not fulfilled"
- molecule: "CCC(=O)O[C@]1(C(=O)SCCOCCOCCP(=O)(O)O)[C@H](C)C[C@H]2[C@@H]3C[C@H](F)C4=CC(=O)C=C[C@]4(C)[C@@]3(F)[C@@H](O)C[C@@]21C"
  label: "Fulfilled"

---

Test system: GILZ gene
assay: GILZ gene assay (qPCR, HUT78 / 786-O cells)
Type: cell-based
conditionNotes: at 10 uM
metricName: GILZ Max

- compound: "C[C@@H]1C[C@H]2[C@@H]3C[C@H](F)C4=CC(=O)C=C[C@]4(C)[C@@]3(F)[C@@H](O)C[C@]2(C)[C@@]1(O)C(=O)SCCCCCCCCCCP(=O)(O)O"
  reportedValue: "66% (at"
- compound: "CCCC1O[C@@H]2C[C@H]3[C@@H]4CCC5=Cc6c(cnn6-c6ccc(OCCCCP(=O)(O)O)cc6)C[C@]5(C)[C@H]4[C@@H](O)C[C@]3(C)[C@]2(C(=O)CO)O1 (stereo partly shown)"
  reportedValue: "61% (at"
- compound: "CCCC1O[C@@H]2C[C@H]3[C@@H]4CCC5=Cc6c(cnn6-c6cccc(OCCCCCCCCCP(=O)(O)O)c6)C[C@]5(C)[C@H]4[C@@H](O)C[C@]3(C)[C@]2(C(=O)CO)O1 (stereo partly shown)"
  reportedValue: "96% (at"
- compound: "CCCC1O[C@@H]2C[C@H]3[C@@H]4CCC5=Cc6c(cnn6-c6cccc(OCCCCP(=O)(O)O)c6)C[C@]5(C)[C@H]4[C@@H](O)C[C@]3(C)[C@]2(C(=O)CO)O1 (stereo partly shown)"
  reportedValue: "101% (at"
- compound: "CCC(=O)O[C@]1(C(=O)SCCCCCCP(=O)(O)O)[C@H](C)C[C@H]2[C@@H]3C[C@H](F)C4=CC(=O)C=C[C@]4(C)[C@@]3(F)[C@@H](O)C[C@@]21C"
  reportedValue: "64% (at"
- compound: "C[C@@H]1C[C@H]2[C@@H]3C[C@H](F)C4=CC(=O)C=C[C@]4(C)[C@@]3(F)[C@@H](O)C[C@]2(C)[C@@]1(O)C(=O)SCCP(=O)(O)O"
  reportedValue: "81% (at"
- compound: "CCC(=O)O[C@]1(C(=O)SCCOCCOCCP(=O)(O)O)[C@H](C)C[C@H]2[C@@H]3C[C@H](F)C4=CC(=O)C=C[C@]4(C)[C@@]3(F)[C@@H](O)C[C@@]21C"
  reportedValue: "40% (at"
- compound: "CCC(=O)O[C@]1(C(=O)SCCCCCCCCCCP(=O)(O)O)[C@H](C)C[C@H]2[C@@H]3C[C@H](F)C4=CC(=O)C=C[C@]4(C)[C@@]3(F)[C@@H](O)C[C@@]21C"
  reportedValue: "71% (at"
- compound: "CCCC1O[C@@H]2C[C@H]3[C@@H]4CCC5=Cc6c(cnn6-c6ccc(OCCCCCCP(=O)(O)O)cc6)C[C@]5(C)[C@H]4[C@@H](O)C[C@]3(C)[C@]2(C(=O)CO)O1 (stereo partly shown)"
  reportedValue: "47% (at"
- compound: "CCC(=O)O[C@]1(C(=O)SCCP(=O)(O)O)[C@H](C)C[C@H]2[C@@H]3C[C@H](F)C4=CC(=O)C=C[C@]4(C)[C@@]3(F)[C@@H](O)C[C@@]21C"
  reportedValue: "36% (at"
